- target_or_test_system: T1, human CLDN18.2 (human)
- T1 construct: also called huCLDN18.2; hCLDN18.2
- test: flow cytometry, live cells from mouse tumor of A549 cells expressing CLDN18.2, antibody 4 µg/ml
reported_endpoint: % of positive tumor cells (Mouse 2) (%)
Response body: numeric value in %, unit text excluded.

Query hCl1a (antibody, human IgG1, kappa, V domains shown, Humanized) VH: QVQLVQSGAEVKKPGASVKVSCKASGYTFTDYAMHWVRQAPGQRLEWMGWINTYTGKPTYAQKFQGRVTITRDTSASTAYMELSSLRSEDTAVYYCARAVFYGYTMDAWGQGTLVTVSS VL: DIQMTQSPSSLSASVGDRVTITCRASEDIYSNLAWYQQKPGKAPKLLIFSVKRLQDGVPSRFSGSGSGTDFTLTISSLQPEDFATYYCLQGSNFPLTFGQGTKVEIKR yields % of positive tumor cells (Mouse 2) of 18
